Reported values of MIC for individual entries
Tested on: Staph. aureus 209-P
Assay: Anti-bacterial activity (MIC), agar dilution
Type: cell-based
Conditions: Staphylococcus aureus, 209P, 18 h, Staph. aureus 209-P; agar dilution, about 10^6 CFU/ml, 18 hours, 37° C.; read-out: MIC
The answer is to be given in µg/mL; state only the numeric part.

Nc1nc(/C(=N/OCF)C(=O)N[C@@H]2C(=O)N3C(C(=O)[O-])=C(/C=C/C[N+]45CCN(CC4)CC5)CS[C@H]23)ns1; 0.2

Reported MIC, compound "CC12C[N+](C/C=C/C3=C(C(=O)[O-])N4C(=O)[C@@H](NC(=O)/C(=N\OCF)c5nsc(N)n5)[C@H]4SC3)(CCO1)CCO2" : ____
0.4

Reported MIC, compound "C[N+]1(C/C=C/C2=C(C(=O)[O-])N3C(=O)[C@@H](NC(=O)/C(=N\OCC#N)c4nsc(N)n4)[C@H]3SC2)CCN(S(N)(=O)=O)CC1" : ____
0.4

Data provenance: patent US4921850A
